Biological target: Human immunodeficiency virus type 1 integrase (Human immunodeficiency virus 1)
Sequence (Q7ZJM1 whole entry): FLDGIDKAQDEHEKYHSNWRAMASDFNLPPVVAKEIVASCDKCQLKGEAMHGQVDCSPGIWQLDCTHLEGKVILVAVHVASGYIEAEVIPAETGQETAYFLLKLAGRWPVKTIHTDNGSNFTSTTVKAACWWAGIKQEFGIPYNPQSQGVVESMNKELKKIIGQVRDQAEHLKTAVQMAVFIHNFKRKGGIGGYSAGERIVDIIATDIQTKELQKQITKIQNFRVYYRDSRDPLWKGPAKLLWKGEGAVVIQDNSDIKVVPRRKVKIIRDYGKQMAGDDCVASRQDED
Assay: Inhibition of HIV1 integrase expressed in Escherichia coli assessed as strand transfer activity by scintillation proximity assay
pIC50: −log10 of the molar value.
measurement-kind: pIC50

The examples below pair each entry with its known result.
1) N#Cc1cc(F)ccc1Cn1ccc2cc(C(=O)NO)ncc21 : 6.09
2) O=C(O)c1cc2ccn(Cc3c(F)cc(Cl)cc3F)c2cn1 : 5.92
3) O=C(O)c1cc2ccn(Cc3cccc(Cl)c3F)c2cn1 : 6.02

[1] NC(=O)c1cc(F)ccc1Cn1ccc2cc(C(=O)NO)ncc21
[2] O=C(NO)c1cc2ccn(Cc3ccccn3)c2cn1
Query: Would you mind telling me which has the lower recorded pIC50 between 1 and 2 ? Return value: the label identifying the chosen record.
Result: 1
